# Species on record: Homo sapiens
# Test Protocol: Selectivity ratio of IC50 for human FBPase to IC50 for recombinant ALDOA (unknown origin)
Measured Metric: Ratio IC50

                                   molecule  result
0  CC(NC(=O)N1C(=O)c2ccccc2S1(=O)=O)c1ccccc1 (stereo unspecified)    > 25
1  COc1cccc(CNC(=O)N2C(=O)c3ccccc3S2(=O)=O)c1    > 25
2   Cc1ccccc1CNC(=O)N1C(=O)c2ccccc2S1(=O)=O    > 25
3   O=C(NCc1ccccc1F)N1C(=O)c2ccccc2S1(=O)=O    > 25
4    O=C(NCc1ccccc1)N1C(=O)c2ccccc2S1(=O)=O    > 25
5  COc1ccccc1CNC(=O)N1C(=O)c2ccccc2S1(=O)=O    > 25

* * *

# Test Protocol: AUCt in 12 hrs fasted ICR mouse at 30 mg/kg, ip measured after 24 hrs by LC-MS/MS analysis
# Run Parameters: in vivo
Measured Metric: AUC(0-t) at 12 h (ng·h/mL)

>>> df
                              compound  display_unit  numeric_readout
0  O=C1NS(=O)(=O)c2ccccc21 [SACCHARIN]       ng·h/mL            14000

* * *

# Species: Homo sapiens
# Test Protocol: Selectivity ratio of IC50 for human FBPase to IC50 for recombinant ALDOC (unknown origin)
Listing of entries alongside the reported Ratio IC50.
Measured Metric: Ratio IC50

>>> print(df.to_string())
                                   compound  measured_metric  result
0    O=C(NCc1ccccc1)N1C(=O)c2ccccc2S1(=O)=O       Ratio IC50    > 25
1   Cc1ccccc1CNC(=O)N1C(=O)c2ccccc2S1(=O)=O       Ratio IC50    > 25
2  COc1cccc(CNC(=O)N2C(=O)c3ccccc3S2(=O)=O)c1       Ratio IC50    > 25
3  COc1ccccc1CNC(=O)N1C(=O)c2ccccc2S1(=O)=O       Ratio IC50    > 25
4   O=C(NCc1ccccc1F)N1C(=O)c2ccccc2S1(=O)=O       Ratio IC50    > 25
5  CC(NC(=O)N1C(=O)c2ccccc2S1(=O)=O)c1ccccc1 (stereo unspecified)       Ratio IC50    > 25

* * *

# Organism: Homo sapiens
# Test Protocol: Selectivity ratio of IC50 for human FBPase to IC50 for recombinant ALDOB (unknown origin)
Measured Metric: Ratio IC50

>>> df
                                   compound  result
0    O=C(NCc1ccccc1)N1C(=O)c2ccccc2S1(=O)=O    > 25
1  CC(NC(=O)N1C(=O)c2ccccc2S1(=O)=O)c1ccccc1 (stereo unspecified)    > 25
2  COc1cccc(CNC(=O)N2C(=O)c3ccccc3S2(=O)=O)c1    > 25
3   O=C(NCc1ccccc1F)N1C(=O)c2ccccc2S1(=O)=O    > 25
4  COc1ccccc1CNC(=O)N1C(=O)c2ccccc2S1(=O)=O    > 25
5   Cc1ccccc1CNC(=O)N1C(=O)c2ccccc2S1(=O)=O    > 25

* * *

Target protein (sequence): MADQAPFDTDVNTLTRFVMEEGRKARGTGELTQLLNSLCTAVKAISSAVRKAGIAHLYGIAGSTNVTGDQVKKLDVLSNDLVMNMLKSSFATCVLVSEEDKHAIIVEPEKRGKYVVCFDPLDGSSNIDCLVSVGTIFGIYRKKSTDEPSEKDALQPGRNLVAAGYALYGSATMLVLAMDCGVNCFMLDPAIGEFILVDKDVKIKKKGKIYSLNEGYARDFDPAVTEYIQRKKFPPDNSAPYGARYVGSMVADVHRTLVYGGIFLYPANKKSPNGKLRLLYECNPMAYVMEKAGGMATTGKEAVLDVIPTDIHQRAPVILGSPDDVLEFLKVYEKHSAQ
Measured Metric: IC50

>>> print(df.to_string())
                            molecule_smiles   result
0  COc1ccccc1CNC(=O)N1C(=O)c2ccccc2S1(=O)=O  1700 nM
